Target: recombinant human SphK1 (Homo sapiens, UniProt Q9NYA1)
Sequence (Q9NYA1 whole entry): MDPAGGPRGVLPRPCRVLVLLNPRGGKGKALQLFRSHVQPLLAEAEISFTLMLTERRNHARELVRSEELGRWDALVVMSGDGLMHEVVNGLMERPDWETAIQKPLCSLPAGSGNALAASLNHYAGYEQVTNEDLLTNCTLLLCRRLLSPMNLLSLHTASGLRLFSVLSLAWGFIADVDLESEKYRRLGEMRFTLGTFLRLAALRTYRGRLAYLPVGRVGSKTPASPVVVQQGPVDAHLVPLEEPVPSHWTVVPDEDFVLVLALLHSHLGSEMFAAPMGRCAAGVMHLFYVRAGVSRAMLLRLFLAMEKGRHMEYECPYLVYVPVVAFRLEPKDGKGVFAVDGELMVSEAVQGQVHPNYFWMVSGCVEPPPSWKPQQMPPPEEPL
Assay: Fluorometric NBD-sphingosine sphingosine kinase inhibition assay, SphK1
Conditions: read-out: Spk1 % (inhibition), Average, 10 μM, Tables S3-S5
Form field: inhibition at 10 µM (one value per entry).
Express it in %; write the number only.

The following compounds have reported results that may help.
Cc1ccc2c(n1)C(=O)C(Oc1ccc(F)cc1)=CC2=O: 54.2
Cc1ccc2c(n1)C(=O)C(Oc1ccc(F)c(Cl)c1)=CC2=O: -7.2
O=Cc1ccc2c(n1)C(=O)C(Oc1ccc(F)cc1)=CC2=O: 11.1
O=Cc1ccc2c(n1)C(=O)C(Oc1ccc(Br)cc1)=CC2=O: -0.9
COc1cccc(OC2=CC(=O)c3ccc(C)nc3C2=O)c1: 39.9

Asked: Entry `COc1cccc(OC2=CC(=O)c3ccc(C=O)nc3C2=O)c1` : reported inhibition at 10 µM = ?
Given back: -6.7

Asked: Cool, now `Cc1ccc2c(n1)C(=O)C(Oc1ccc(Cl)c(Cl)c1)=CC2=O`
Given back: 25.3

Asked: Input `COc1ccc(OC2=CC(=O)c3ccc(C)nc3C2=O)cc1`
Given back: 69.2

Asked: Now consider `COc1ccc(OC2=CC(=O)c3ccc(CN4CCC[C@@H]4CO)nc3C2=O)cc1` and answer again.
Given back: 63.1

Asked: Same read-out for `Cc1ccc2c(n1)C(=O)C(Oc1ccc(CCO)cc1)=CC2=O` ?
Given back: 19
